- SYSTEM: μ opioid receptor (UniProt P35372)
- Sequence (P35372 whole entry): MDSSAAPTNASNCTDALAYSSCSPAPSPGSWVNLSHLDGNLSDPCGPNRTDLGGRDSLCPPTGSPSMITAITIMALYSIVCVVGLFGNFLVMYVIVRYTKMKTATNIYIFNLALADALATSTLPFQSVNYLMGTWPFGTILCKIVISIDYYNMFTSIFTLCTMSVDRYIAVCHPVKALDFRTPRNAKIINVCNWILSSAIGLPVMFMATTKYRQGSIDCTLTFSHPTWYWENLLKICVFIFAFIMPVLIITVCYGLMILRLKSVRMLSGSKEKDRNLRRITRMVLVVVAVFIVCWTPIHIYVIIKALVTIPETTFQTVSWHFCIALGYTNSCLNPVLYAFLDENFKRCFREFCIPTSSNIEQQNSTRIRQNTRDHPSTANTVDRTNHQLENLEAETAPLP
Starred links: 1 amine or outer side, 2 acyl side, 3 side chain; linkers in the order of their positions; H or OH if unused. Non-standard residues stand in square brackets, D forms with d. No end group written: not given here. Phe(2-(4-CF3-phenyl)) = O=C([C@H](Cc1ccccc1-c1ccc(C(F)(F)F)cc1)N[*:1])[*:2]; Phe(3-(3-thienyl)) = O=C([C@H](Cc1cccc(-c2ccsc2)c1)N[*:1])[*:2]; Dmt = Cc1cc(O)cc(C)c1C[C@H](N)C(=O)O
Kindly state IC50 in the guinea pig ileum (GPI) assay for each of the entries shown.
Numbers only, in nM.

Use the examples below as a reference point.
BINDER	METRIC NAME	ASSAY RESULT
[Dmt][dR][Phe(2-(4-CF3-phenyl))]G-NH2 (N-terminus assumed; SMILES Cc1cc(O)cc(C)c1C[C@H](N)C(=O)N[C@H](CCCNC(=N)N)C(=O)N[C@@H](Cc1ccccc1-c1ccc(C(F)(F)F)cc1)C(=O)NCC(N)=O) [Dmt-D-Arg-Phe(2-(4-CF3-phenyl))-Gly-NH2]	IC50 in the guinea pig ileum (GPI) assay	1.26
[Dmt][dR]FG-NH2 (N-terminus assumed; SMILES Cc1cc(O)cc(C)c1C[C@H](N)C(=O)N[C@H](CCCNC(=N)N)C(=O)N[C@@H](Cc1ccccc1)C(=O)NCC(N)=O) [Dmt-D-Arg-Phe-Gly-NH2]	IC50 in the guinea pig ileum (GPI) assay	2.26
[Dmt][dA]FG-NH2 (N-terminus assumed; SMILES Cc1cc(O)cc(C)c1C[C@H](N)C(=O)N[C@H](C)C(=O)N[C@@H](Cc1ccccc1)C(=O)NCC(N)=O) [Dmt-D-Ala-Phe-Gly-NH2]	IC50 in the guinea pig ileum (GPI) assay	1.5

From here, focus on the item given below.
The measured IC50 in the guinea pig ileum (GPI) assay associated with [Dmt][dR][Phe(3-(3-thienyl))]G-NH2 (N-terminus assumed; SMILES Cc1cc(O)cc(C)c1C[C@H](N)C(=O)N[C@H](CCCNC(=N)N)C(=O)N[C@@H](Cc1cccc(-c2ccsc2)c1)C(=O)NCC(N)=O) [Dmt-D-Arg-Phe(3-(3-thienyl))-Gly-NH2] reads 30.4
